Hi there, I'd appreciate the recorded MIC for every entry that follows.
Test system: spores of ATCC BBA1870 strain
assay remarks: Inhibition of germination of C. difficile spores (MIC), strain ATCC BBA1870
Format: cell-based
experimental parameters: Clostridioides difficile, ATCCBBA1870STRAIN, 1 h; strain 1870; sodium taurocholate as germinant, BHIS medium, 37° C., OD580 for 60 min; read-out: MIC (minimum concentration that completely inhibits spore germination)
Numbers only, in µM.

CC(C)[C@@H](NC(=O)C[C@@H](C)[C@H]1CC[C@H]2[C@@H]3C[C@H](O)[C@@H]4C[C@H](O)CC[C@]4(C)[C@H]3CC[C@]12C)c1ccc(Br)s1: 2
CC[C@@H](NC(=O)C[C@@H](C)[C@H]1CC[C@H]2[C@@H]3[C@H](OC(C)=O)CC4=CC(=O)C=C[C@]4(C)[C@H]3CC[C@]12C)c1ccc(Cl)s1: 0.5

Now look at this one.
Provide MIC, recorded with spores of ATCC BBA1870 strain, of CC[C@H](NC(=O)C[C@@H](C)[C@H]1CC[C@H]2[C@@H]3C(=O)C[C@@H]4CC(=O)CC[C@]4(C)[C@H]3CC[C@]12C)c1ccc(Br)s1 32

====

Hi there, I'd appreciate the recorded MIC for every entry that follows.
Test system: spores of ATCC 630 strain
assay remarks: Inhibition of germination of C. difficile spores (MIC), strain ATCC 630
Assay type: cell-based
experimental parameters: Clostridioides difficile, ATCC630, 1 h; strain 630; sodium taurocholate as germinant, BHIS medium, 37° C., OD580 for 60 min; read-out: MIC (minimum concentration that completely inhibits spore germination)
Give bare numbers, in µM.

Sample answers from the record:
CC[C@@H](NC(=O)C[C@@H](C)[C@H]1CC[C@H]2[C@@H]3[C@H](N)C[C@@H]4CC(=O)CC[C@]4(C)[C@H]3CC[C@]12C)c1ccc(Cl)s1: 32
CC(NC(=O)C[C@@H](C)[C@H]1CC[C@H]2[C@@H]3C(=O)C[C@@H]4CC(=O)CC[C@]4(C)[C@H]3CC[C@]12C)c1cccs1 (some centres unmarked): 2

For every item in the list below, what is its measured MIC?
1. CC[C@@H](NC(=O)C[C@@H](C)[C@H]1CC[C@H]2[C@@H]3C(=O)C[C@@H]4CC(=O)CC[C@]4(C)[C@H]3CC[C@]12C)c1ccc(C(C)=O)s1
2. CC(C)C(NC(=O)C[C@@H](C)[C@H]1CC[C@H]2[C@@H]3C[C@H](O)[C@@H]4C[C@H](O)CC[C@]4(C)[C@H]3CC[C@]12C)c1cccs1 (some centres unmarked)
3. CC(C)[C@@H](NC(=O)C[C@@H](C)[C@H]1CC[C@H]2[C@@H]3C(=O)CC4=CC(=O)C=C[C@]4(C)[C@H]3CC[C@]12C)c1ccc(Cl)s1

32
4
0.5

====

Tested on: spores of ATCC 630 strain
assay remarks: Inhibition of germination of C. difficile spores (MIC), strain ATCC 630
Type: cell-based
experimental parameters: Clostridioides difficile, ATCC630, 1 h; strain 630; sodium taurocholate as germinant, BHIS medium, 37° C., OD580 for 60 min; read-out: MIC (minimum concentration that completely inhibits spore germination)
Procedure: According to a method disclosed in “The Journal of Infectious Diseases. 2013; 207: 1498-504”, spores of ATCC BBA1870, ATCC 43255 and ATCC 630 strains were obtained by culture and purification, and stored at 4° C. Spore preparation: the C. difficile spores stored at 4° C. were heat-activated for 30 min at 65° C., centrifuged at 9,400 g for 2 min, and washed three times to remove any self-germinating spores. […]
Friendly reminder: MIC below 4 µM is 1.0, at or above is 0.0.

For orientation, consider the following solved cases.
CCCCCCCC(=O)O[C@@H]1C[C@@H]2CC(=O)CC[C@]2(C)[C@H]2CC[C@]3(C)[C@@H]([C@H](C)CC(=O)N[C@@H](c4ccc(Br)s4)C(C)C)CC[C@H]3[C@H]12 [Compound I-186]: 0.0
CC(C)[C@H](NC(=O)C[C@@H](C)[C@H]1CC[C@H]2[C@@H]3C(=O)C[C@@H]4CC(=O)CC[C@]4(C)[C@H]3CC[C@]12C)c1cccs1 [Compound I-67]: 0.0
CC(NC(=O)C[C@@H](C)[C@H]1CC[C@H]2[C@@H]3[C@H](O)[C@H](O)[C@@H]4C[C@H](O)CC[C@]4(C)[C@H]3CC[C@]12C)c1cccs1 (stereo partly shown) [Compound I-22]: 0.0
C[C@H](CC(=O)NCc1cccnc1)[C@H]1CC[C@H]2[C@@H]3[C@H](O)C[C@@H]4C[C@H](O)CC[C@]4(C)[C@H]3CC[C@]12C [Compound I-5]: 0.0
CC[C@@H](NC(=O)C[C@@H](C)[C@H]1CC[C@H]2[C@@H]3C(=O)C[C@@H]4C[C@H](OC)CC[C@]4(C)[C@H]3CC[C@]12C)c1ccc(Cl)s1 [Compound I-167]: 0.0

A record lists CC(C)[C@@H](NC(=O)C[C@@H](C)[C@H]1CC[C@H]2[C@@H]3CC[C@@H]4C[C@H](O)CC[C@]4(C)[C@H]3CC[C@]12C)c1ccc(Br)s1 [Compound I-148] . Is its MIC below 4 µM? 0.0
